Tested on: HIV-1 activation in OM-10.1 cells
Assay: Inhibition of activation of latent HIV-1 in chronically infected OM-10.1 cells
Assay type: cell-based
Conditions: Human immunodeficiency virus 1
Method: The cellular pathways involved in mediating the activating signal from the plasma membrane to the integrated virus, resulting in HIV-1 expression, are much less clear. […] The expression of CD4+ on the cell surface and the activity of reverse transcriptase are used as markers for quantitating viral expression. […] A variety of compounds known to have antiviral properties against either acutely or chronically infected cells were evaluated for their ability to inhibit HIV expression in these OM-10.1 cells. […]
experimental_readout: IC50 (nM)
Only the number, expressed in nM, is required.

query: Look up IC50 with HIV-1 activation in OM-10.1 cells for this molecule: COc1ccc2sc(C(N)=O)c(SC(C)C)c2c1
result: 400

Data provenance is patent US5350748A.
